Where do the numbers come from? From patent US20240425470A1.

- system_tested: Dopamine transporter (DAT) (Homo sapiens (Human))
- test: Dopamine transporter (DAT) uptake inhibition, [3H]-dopamine uptake in HEK cells
- experimental_context: HEK cells expressing recombinant DAT; [3H]-dopamine 20 nM
readout_type: IC50 (µM)
Hi! Could you send only the number? It should be in µM, unit omitted.

(Q) Give the reported value of IC50 for this record: CC(N)Cc1ccc2occ(F)c2c1 (stereo not drawn)
(A) 15.6

(Q) Give the reported value of IC50 for this record: CNC(C)Cc1ccc2occ(F)c2c1 (stereo not drawn)
(A) 9.59

(Q) Give the reported value of IC50 for this record: CNC(C)Cc1ccc2c(c1)OCO2 (stereo not drawn) [MDMA, 3,4-Methylenedioxymethamphetamine, reference compound]
(A) 5.25
